src = PubChem BioAssay AID1159580

Consider the following molecules; for each one, report its normalized growth.
- experiment-summary: chemical genetic growth profiling, strain panel (AID 1159580);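 also: tested at 20 µM; growth read once vehicle control cultures reached saturation at 30 °C; 1 = growth at the plate median or of vehicle wells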
- condition-parameters: S. cerevisiae deletion strains, growth OD, locus YMR219W, strain ESC1, active compounds read low
The campaign covered roughly 5,500 compounds. About 2,000 (36%) were called active. Not shown: some 18% with an inconclusive outcome. This is one part of the list.
Answers are plain numbers.

Below, 3 molecules whose answers are already recorded.
molecule: CCCCCc1ccc(S(=O)(=O)Nc2cccnc2Oc2ccc(Cl)cc2)cc1
measured-property: normalized growth
assay-result: 0.996

molecule: CC(O)CNc1ccc(C(F)(F)F)cc1[N+](=O)[O-] (stereo not given)
measured-property: normalized growth
assay-result: 1

molecule: N/C(=N/OC(=O)C(Cl)Cl)c1cccc(Cl)c1Cl
measured-property: normalized growth
assay-result: 0.984

// batch mode: one normalized growth value per listed entry
1. NC(=S)Nc1cc(Cl)ccc1Cl
2. O=C(c1ccc(Cl)cc1)N1CCN(c2ccc(C(F)(F)F)cn2)CC1
3. O=C1CCC(=O)N1CNc1ccccc1OC(F)(F)F
4. CC(=O)CSc1nsc(SCC(C)=O)c1C#N

Result block:
1: 1; 2: 0.958; 3: 0.993; 4: 0.989

Hi there! I need normalized growth for each item below, if you can.
1. O=C(NC(c1ccccc1)C(N=Cc1ccccc1)c1ccccc1)c1ccccc1 (stereo not given)
2. S=c1nc(-c2ccccc2)[nH][nH]1
3. COc1ccccc1N=C1SCC(=O)N1Cc1ccco1

Result block:
[1.01, 0.999, 0.989]

---

- experiment-summary: chemical genetic growth profiling, strain panel (AID 1159580)
- condition-parameters: S. cerevisiae deletion strains, growth OD, locus YDL185W, strain tfp1, active compounds read low
The whole screen tested about 5,500 compounds, of which about 2,000 (36%) were called active. Inconclusive results (about 18%) are left out. Some of the results follow.
Mark Y only when normalized growth stays strictly below 1. Values equal to the cut-off are N.

Would you please look over these solved cases?
smiles-input: COc1c2c(cc3occ(-c4ccc5c(c4)OCO5)c(=O)c13)OC(C)(C)C=C2
classification: Y
//
smiles-input: c1coc(CNc2ncnc3nc[nH]c23)c1
classification: Y
//
smiles-input: CC(C)=CCc1c(O)cc2occ(-c3ccc4c(c3)OCO4)c(=O)c2c1O
classification: N
//
smiles-input: O=C1c2ccccc2C(=O)c2c1ccc(O)c2O
classification: Y
//
smiles-input: CNC(=O)CSP(=S)(OC)OC
classification: N

Query block: Consider the molecule "c1ccc2c(c1)[nH]c1cnccc12" . Is its normalized growth strictly less than 1?
Result block: Y

Query block: Answer whether the molecule "COC(=O)C1=CO[C@@H](O[C@@H]2O[C@H](CO)[C@@H](O)[C@H](O)[C@H]2O)[C@@H]2[C@@H](C)[C@@H](O)C[C@H]12" has normalized growth strictly less than 1
Result block: Y

---

- experiment-summary: chemical genetic growth profiling, strain panel (AID 1159580)
- condition-parameters: S. cerevisiae deletion strains, growth OD, locus YNL271C, strain bni1
Hit rate of the full screen: of about 5,500 compounds, about 2,000 (36%) were called active. Not shown: some 18% with an inconclusive outcome. No stated cut-off is given here; in the data, active means normalized growth mostly below about 0.91 (no sharp cut-off); inconclusive means no clear call, values can overlap the other calls; inactive means mostly above about 0.92. Some of the results follow.
Entry note: the call must match one of yes (active), no (inactive)

# count of solved cases: 5
compound: CNC(=O)CSP(=S)(OC)OC
classification: no

compound: CC1(C)S[C@@H]2[C@H](NC(=O)COc3ccccc3)C(=O)N2[C@H]1C(=O)O
classification: no

compound: Cc1ncc([N+](=O)[O-])n1CCO
classification: no

compound: CC(C)=CCC1=C(O)c2ccccc2C(=O)C1=O
classification: yes

compound: CCOC(=O)C1=C(C)NC(C)=C(C(=O)OC)C1c1cccc([N+](=O)[O-])c1 (stereo unspecified)
classification: no

Query block: Tell me the recorded outcome of this test for "COP(=S)(OC)SCn1nnc2ccccc2c1=O" .
Result block: no

---

- experiment-summary: chemical genetic growth profiling, strain panel (AID 1159580);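 also: tested at 20 µM; growth read once vehicle control cultures reached saturation at 30 °C; 1 = growth at the plate median or of vehicle wells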
- condition-parameters: S. cerevisiae deletion strains, growth OD, locus YKL048C, strain ELM1, active compounds read low
Screen size: about 5,500 compounds; about 2,000 (36%) were called active. Roughly 18% stayed inconclusive and do not appear here. This is one part of the list.
# note: exactly 0.6 is not below, so it is not fulfilled; use fulfilled for normalized growth strictly under it

As a guide, the following entries are already answered.
smiles-input: NNC(=O)COc1ccc(C2SCCS2)cc1
classification: fulfilled

smiles-input: COc1cc(OC)cc(/C(N)=N\O)c1
classification: not fulfilled

smiles-input: N#C/C(=C\c1ccc(C(F)(F)F)cc1)c1ccc(O)cc1
classification: fulfilled

Query block: Hello, I'm reviewing records and need to know if normalized growth of "Cc1c(NCN2C(=O)CCC2=O)cc2c(c1[N+](=O)[O-])C(C)(C)CC2(C)C" is below 0.6. Could you check?
Result block: not fulfilled

Query block: Hello, is normalized growth of the following compound strictly smaller than 0.6? "O=S(=O)(Nc1ccc(-n2nc(C(F)(F)F)cc2-c2cccs2)cc1)c1ccc(F)cc1"
Result block: not fulfilled

Query block: Given the entry "CC(/C=C/c1ccccc1)=N/OC(=O)c1ccccc1Cl" , would its reported normalized growth be below 0.6?
Result block: not fulfilled

Query block: Here's an entry: "CSc1sc(-c2ccn[nH]2)c(-c2ccccc2)c1C#N" . Is its normalized growth below 0.6?
Result block: not fulfilled

Query block: Input "O=C(c1ccc(Cl)cc1)N1CCN(c2ccc(C(F)(F)F)cn2)CC1" ; condition: normalized growth strictly below 0.6. Does it hold?
Result block: not fulfilled

Query block: Say whether its normalized growth is strictly beneath 0.6. Entry: "Fc1ccc(Nc2nc(-c3ccc(F)c(F)c3)cs2)c(F)c1"
Result block: fulfilled

Query block: Quick check: does "Cc1oc(-c2ccc(Cl)cc2)cc1C(=O)N1CCN(c2ccc(C(F)(F)F)cn2)CC1" have normalized growth under 0.6?
Result block: not fulfilled

---

- experiment-summary: chemical genetic growth profiling, strain panel (AID 1159580);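 also: tested at 20 µM; growth read once vehicle control cultures reached saturation at 30 °C; 1 = growth at the plate median or of vehicle wells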
- condition-parameters: S. cerevisiae deletion strains, growth OD, locus YEL061C, strain CIN8
Out of some 5,500 compounds screened, about 2,000 (36%) were called active. Roughly 18% stayed inconclusive and do not appear here. Rule as the data show it: active = normalized growth mostly below about 0.91 (no sharp cut-off); inconclusive = no clear call, values can overlap the other calls; inactive = mostly above about 0.92. The list shows a part of the results.
Please reply with one of these outcomes: True = active, False = inactive

molecule: Cc1cc(O)c2c(c1O)C(=O)c1c(O)cc(C)c(O)c1C2=O
classification: False
--
molecule: O=C(c1ccc(Cl)cc1)N1CCN(c2ccc(C(F)(F)F)cn2)CC1
classification: True
--
molecule: Cc1cccc(N2C(=O)C3C4C=CC(C4)C3C2=O)n1 (stereo unspecified)
classification: False

Query block: Would you mind telling me which call this test gave "COP(=S)(OC)SCn1nnc2ccccc2c1=O" ?
Result block: False

Query block: Which outcome was assigned to C[C@]12CCC3C(CC[C@H]4C[C@@H](O)CC[C@]34C)C1CCC2=O (stereo partly specified) in this test?
Result block: True

Query block: In this assay, the call recorded for O=C(NC(c1ccccc1)C(N=Cc1ccccc1)c1ccccc1)c1ccccc1 (stereo unspecified) was what?
Result block: False

Query block: Entry "COc1c(O)cc(O)cc1O" : call = ?
Result block: False

Query block: Recorded test call requested for "O=[N+]([O-])/N=C1/NCCN1Cc1ccc(Cl)cc1"
Result block: False

Query block: Query: recorded result category for "COc1cc(O)c(C)c(O)c1" in this test
Result block: False

Query block: State the result this test recorded for "O=C1CCC(=O)N1CNc1ccccc1OC(F)(F)F" .
Result block: False

Query block: Fill in: this test's call for "FC(F)(F)c1ccc(-n2cncn2)nc1" is ___
Result block: False

Query block: Each molecule tested received a call. Report the one for "Cc1cccc(NCN2C(=O)CCC2=O)n1" .
Result block: False

Query block: What was the test verdict on "NCCS" ?
Result block: False

Query block: Record lookup: outcome of this test for "Cn1c([N+](=O)[O-])cnc1COC(N)=O" ?
Result block: False

Query block: Which result was noted for this molecule in the test: "COC(=O)C1=CO[C@@H](O[C@@H]2O[C@H](CO)[C@@H](O)[C@H](O)[C@H]2O)[C@@H]2[C@@H](C)[C@@H](O)C[C@H]12"
Result block: False

Query block: Called result for "Cc1ccc(S(=O)(=O)Oc2ccc(CC#N)cc2)cc1"
Result block: False

Query block: For "Cc1ncc([N+](=O)[O-])n1CCO" , which call appears in the assay record?
Result block: False

Query block: Assay outcome for "COc1cc(O)c(C(C)=O)c(OC)c1" : what was it?
Result block: False

---

- experiment-summary: chemical genetic growth profiling, strain panel (AID 1159580);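 also: tested at 20 µM; growth read once vehicle control cultures reached saturation at 30 °C; 1 = growth at the plate median or of vehicle wells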
- condition-parameters: S. cerevisiae deletion strains, growth OD, locus YDR392W, strain spt3, active compounds read low
Among all 5,500 compounds or so, about 2,000 (36%) were called active. Not shown: some 18% with an inconclusive outcome. The list shows a part of the results.
Note to self: use condition met only for normalized growth readings below 0.9; a reading exactly at 0.9 still gets condition not met.

Worked examples follow.
compound: CCC(=O)O[C@H]1CCC2C3CCc4cc(O)ccc4C3CC[C@@]21C (stereo not given in full)
classification: condition met
//
compound: CN1Cc2c(N)cccc2C(c2ccccc2)C1 (stereo not given)
classification: condition not met
//
compound: OC[C@@H](O)C(O[C@@H]1O[C@H](CO)[C@H](O)[C@H](O)[C@H]1O)[C@H](O)[C@@H](O)CO (stereo not given in full)
classification: condition not met

Query block: Dear reviewer, please state whether CCCCC(=O)O[C@H]1CCC2C3CCc4cc(O)ccc4C3CC[C@@]21C (stereo not given in full) has normalized growth strictly beneath 0.9.
Result block: condition met
